# Species on record: Rattus norvegicus
# assay_remarks: DrugMatrix - Regimen: Daily Repeat
# Type: toxicity, organism-based, Sprague-Dawley
# Parameters: regimen Daily Repeat, gender Male, age 6-8 weeks
# condition_parameters: in vivo, po, 0 mg/kg, 120 h, tissue Blood, route oral GAVAGE, dose level Control, time 5 day, […]
property_name: ABSOLUTE LYMPHOCYTE (CELLS/uL)
Report the value in CELLS/uL with no unit label.

Answered cases to consult:
Would you mind telling me what ABSOLUTE LYMPHOCYTE value was observed for `CCCCCCCCc1ccc(O)cc1` ?
12494.67

Which ABSOLUTE LYMPHOCYTE value belongs to CC(C)(Oc1ccc(C2CCCc3ccccc32)cc1)C(=O)O (stereo not given) ?
12729.33

Any idea what its ABSOLUTE LYMPHOCYTE is? The molecule is `O=NN(CCCl)C(=O)NCCCl`
10431

Returns the measured ABSOLUTE LYMPHOCYTE for the input molecule. Input: CC(C)Cc1ccc(C(C)C(=O)O)cc1 (stereo not given)
4426.33

What does the data say about its ABSOLUTE LYMPHOCYTE? Entry: COCCOC(=O)C1=C(C)NC(C)=C(C(=O)OC(C)C)C1c1cccc([N+](=O)[O-])c1 (stereo not given)
8295.33

---
Requested read-out: ABSOLUTE LYMPHOCYTE. Entry: `CC(=O)Nc1cccc(O)c1`
15950.83

Could you tell me which ABSOLUTE LYMPHOCYTE is on file for `CC(=O)Nc1ccc(O)cc1` ?
10431

Returns the measured ABSOLUTE LYMPHOCYTE for the input molecule. Input: `C[C@]12CC[C@@H]3c4ccc(O)cc4CC[C@H]3[C@@H]1CC[C@@H]2O`
9065

Would you kindly share the measured ABSOLUTE LYMPHOCYTE for COc1ccc2[nH]c([S+]([O-])Cc3ncc(C)c(OC)c3C)nc2c1 (stereo not given) ?
9526.67

ABSOLUTE LYMPHOCYTE for CCOC(=O)C1=C(C)NC(C)=C(C(=O)OC)C1c1cccc([N+](=O)[O-])c1 (stereo not given) ?
8295.33

---

# Species on record: Rattus norvegicus
# assay_remarks: DrugMatrix - Regimen: Daily Repeat
# Format: toxicity, organism-based, Sprague-Dawley
# Set-up: regimen Daily Repeat, gender Male, age 6-8 weeks
# condition_parameters: in vivo, sc, 0.5 mg/kg, 120 h, tissue Blood, route mini-PUMP - SUBCUTANEOUS, dose level High, time 5 day, vehicle 100 % SALINE
property_name: ABSOLUTE LYMPHOCYTE

Dear colleague, I am looking for the recorded ABSOLUTE LYMPHOCYTE of the following compound: `CC[C@H](C)[C@H](NC(=O)[C@H](Cc1ccc(O)cc1)NC(=O)[C@@H](NC(=O)[C@H](CCCNC(=N)N)NC(=O)[C@@H](N)CC(=O)O)C(C)C)C(=O)N[C@@H](Cc1cnc[nH]1)C(=O)N1CCC[C@H]1C(=O)N[C@@H](Cc1ccccc1)C(=O)O`
9260 cells/µL

---

# Species on record: Rattus norvegicus
# assay_remarks: DrugMatrix - Regimen: Daily Repeat
# Type: toxicity, organism-based, Sprague-Dawley
# Design: regimen Daily Repeat, gender Male, age 6-8 weeks
# condition_parameters: in vivo, po, 1500 mg/kg, 120 h, tissue Blood, route oral GAVAGE, dose level High, time 5 day, vehicle .5 % CMC
property_name: LEUKOCYTE COUNT (x10E3/uL)
Please respond with the number in x10E3/uL and leave the unit unwritten.

# LEUKOCYTE COUNT lookup, item `CO[C@H]1/C=C/O[C@@]2(C)Oc3c(C)c(O)c4c(c3C2=O)C2=NC3(CCN(CC(C)C)CC3)NC2=C(NC(=O)/C(C)=C\C=C\[C@H](C)[C@H](O)[C@@H](C)[C@@H](O)[C@@H](C)[C@H](OC(C)=O)[C@@H]1C)C4=O`
14.3

---
Recorded LEUKOCYTE COUNT of Cc1cc(=O)n(-c2ccccc2)n1C [ANTIPYRINE] , please.
23.67

For NC(=O)c1cnccn1 [PYRAZINAMIDE] , what is its reported LEUKOCYTE COUNT?
13.9

Suppose we examine the compound `O=C(N[C@H](CO)[C@H](O)c1ccc([N+](=O)[O-])cc1)C(Cl)Cl` ; what LEUKOCYTE COUNT value has been reported?
15.33

What does the record list as LEUKOCYTE COUNT for `CNC(=C[N+](=O)[O-])NCCSCc1ccc(CN(C)C)o1` ?
18.07

Requested read-out: LEUKOCYTE COUNT. Entry: `C[C@]1(Cn2ccnn2)[C@H](C(=O)O)N2C(=O)C[C@H]2S1(=O)=O`
12.83

// query LEUKOCYTE COUNT value for entry Cc1ccc(S(=O)(=O)NC(=O)NN2CC3CCCC3C2)cc1 (configuration not stated) [GLICLAZIDE]
12.33

---

# Species on record: Rattus norvegicus
# assay_remarks: DrugMatrix - Regimen: Daily Repeat
# Format: toxicity, organism-based, Sprague-Dawley
# Design: regimen Daily Repeat, gender Male, age 6-8 weeks
# condition_parameters: in vivo, po, 0 mg/kg, 120 h, tissue Blood, route oral GAVAGE, dose level Control, time 5 day, vehicle 100 % WATER
Entries and their HEMATOCRIT
Give the number; % is assumed, so skip it.

Name the recorded HEMATOCRIT for COC(=O)C1=C(C)NC(C)=C(C(=O)OCC(C)C)C1c1ccccc1[N+](=O)[O-] (stereo not given) [NISOLDIPINE] .
34.63

More entries:
Could you tell me which HEMATOCRIT is on file for ClC(Cl)Cl [CHLOROFORM] ?
36.48

State the recorded HEMATOCRIT for this entry: C[C@@H]1C[C@@H]([C@H](O)CC2CC(=O)NC(=O)C2)C(=O)[C@@H](C)C1 [CYCLOHEXIMIDE]
35.17

Would you kindly share the measured HEMATOCRIT for CC(C)(C)c1ccc(C(=O)CCCN2CCC(OC(c3ccccc3)c3ccccc3)CC2)cc1 [EBASTINE] ?
34.83

---

# Species: Rattus norvegicus
# assay_remarks: DrugMatrix - Regimen: Daily Repeat
# Type: toxicity, organism-based, Sprague-Dawley
# Set-up: regimen Daily Repeat, gender Male, age 6-8 weeks
# condition_parameters: in vivo, iv, 0 mg/kg, 120 h, tissue Plasma, dose level Control, time 5 day, vehicle 100 % SALINE
CARBON DIOXIDE overview
Value expressed in mmol/L; do not type the unit.

Field: example entries. Status: answers known.
For the compound `CC[C@]1(O)C[C@@H]2CN(CCc3c([nH]c4ccccc34)[C@@](C(=O)OC)(c3cc4c(cc3OC)N(C)[C@H]3[C@@](O)(C(=O)OC)[C@H](OC(C)=O)[C@]5(CC)C=CCN6CC[C@]43[C@@H]65)C2)C1` , what CARBON DIOXIDE is on record?
30.67

Can you share its CARBON DIOXIDE? I mean this compound: `CCC1=C[C@@H]2CN(C1)Cc1c([nH]c3ccccc13)[C@@](C(=O)OC)(c1cc3c(cc1OC)N(C)[C@H]1[C@@](O)(C(=O)OC)[C@H](OC(C)=O)[C@]4(CC)C=CCN5CC[C@]31[C@@H]54)C2`
27

Quick one: CARBON DIOXIDE for `COc1cccc2c1C(=O)c1c(O)c3c(c(O)c1C2=O)C[C@@](O)(C(=O)CO)C[C@@H]3O[C@H]1C[C@H](N)[C@H](O)[C@H](C)O1` ?
27

Item `CCc1c2c(nc3ccc(OC(=O)N4CCC(N5CCCCC5)CC4)cc13)-c1cc3c(c(=O)n1C2)COC(=O)[C@]3(O)CC` has what recorded CARBON DIOXIDE?
25.5

Which CARBON DIOXIDE reading was recorded for the compound `CC(=O)N[C@@H]1[C@H](Oc2c3cc4cc2Oc2ccc(cc2Cl)[C@@H](O[C@@H]2O[C@@H](CO)[C@@H](O)[C@H](O)[C@@H]2NC(C)=O)[C@@H]2NC(=O)[C@H](NC(=O)[C@@H]4NC(=O)[C@H]4NC(=O)[C@@H](Cc5ccc(c(Cl)c5)O3)NC(=O)[C@H](N)c3ccc(O)c(c3)Oc3cc(O)cc4c3)c3ccc(O)c(c3)-c3c(O[C@H]4O[C@H](CO)[C@@H](O)[C@@H](O)[C@@H]4O)cc(O)cc3[C@@H](C(=O)O)NC2=O)O[C@@H](CO)[C@@H](O)[C@@H]1O` ?
26.67

Please examine the following record next.
// returns reported CARBON DIOXIDE for input COc1cccc2c1C(=O)c1c(O)c3c(c(O)c1C2=O)C[C@@](O)(C(=O)CO)C[C@@H]3O[C@H]1C[C@H](N)[C@@H](O)[C@H](C)O1 [EPIRUBICIN]
25.5

---

# Species: Rattus norvegicus
# assay_remarks: DrugMatrix - Regimen: Daily Repeat
# Format: toxicity, organism-based, Sprague-Dawley
# Parameters: regimen Daily Repeat, gender Male, age 6-8 weeks
# condition_parameters: in vivo, po, 0 mg/kg, 72 h, tissue Plasma, route oral GAVAGE, dose level Control, time 3 day, vehicle .5 % CMC
property_name: ALANINE AMINOTRANSFERASE (u/L)
Please state the figure in u/L; there is no need to write the unit.

Worked set:
For the compound `CC[C@@H](CO)NCCN[C@@H](CC)CO` , what ALANINE AMINOTRANSFERASE is on record?
40.17

For the compound shown here, `CO[C@H]1/C=C/O[C@@]2(C)Oc3c(C)c(O)c4c(c3C2=O)C2=NC3(CCN(CC(C)C)CC3)NC2=C(NC(=O)/C(C)=C\C=C\[C@H](C)[C@H](O)[C@@H](C)[C@@H](O)[C@@H](C)[C@H](OC(C)=O)[C@@H]1C)C4=O` , give the reported ALANINE AMINOTRANSFERASE.
49.17

Entry CC(C)[C@H]1CC[C@H](C(=O)N[C@H](Cc2ccccc2)C(=O)O)CC1 [NATEGLINIDE] : reported ALANINE AMINOTRANSFERASE = ?
57.17

Look up ALANINE AMINOTRANSFERASE: `Cc1onc(-c2ccccc2)c1-c1ccc(S(N)(=O)=O)cc1`
42.33

Which ALANINE AMINOTRANSFERASE reading was recorded for the compound `O=[N+]([O-])c1ccccc1` ?
43

New cases:
Need ALANINE AMINOTRANSFERASE, item `CN1CCC(=C2c3ccccc3C=Cc3ccccc32)CC1`
38.83

Look up ALANINE AMINOTRANSFERASE for this compound: CN1C(=O)COc2c(C(=O)NC3CN4CCC3CC4)cc(Cl)cc21 (stereo unspecified)
47.67

State the recorded ALANINE AMINOTRANSFERASE for this entry: CC(=O)CC(c1ccccc1)c1c(O)c2ccccc2oc1=O (stereo unspecified)
45.33

Give its ALANINE AMINOTRANSFERASE value. Item: OC(CCN1CCCCC1)(c1ccccc1)C1CCCCC1 (stereo unspecified)
53

Value lookup for ALANINE AMINOTRANSFERASE; key = C[C@](O)(CS(=O)(=O)c1ccc(F)cc1)C(=O)Nc1ccc(C#N)c(C(F)(F)F)c1 [(R)-BICALUTAMIDE]
49.67

Look up ALANINE AMINOTRANSFERASE for this compound: `Clc1ccc2c(c1)C(N1CCNCC1)=Nc1ccccc1O2`
54.83
